# MEASUREMENT_TARGET: T1, human TREM2 (human, UniProt Q9NZC2 19-230)
# T1 construct: on THP-1 WT cells and M2a-like macrophages (endogenous) and on CHO or HEK293T cells overexpressing human TREM2 with DAP12; also called hTREM2
# T1 sequence: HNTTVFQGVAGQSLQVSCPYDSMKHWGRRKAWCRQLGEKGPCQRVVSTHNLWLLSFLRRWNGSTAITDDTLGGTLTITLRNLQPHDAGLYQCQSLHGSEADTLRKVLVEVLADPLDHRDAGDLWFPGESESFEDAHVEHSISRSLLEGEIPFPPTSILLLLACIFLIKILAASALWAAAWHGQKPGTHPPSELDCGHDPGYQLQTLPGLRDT
# ASSAY_PROCEDURE: flow cytometry, M2a-like macrophages, dose-response
pKd: −log10 of the molar value.
VALUE_KIND: pKd

INSERT INTO measurements (binder, value_kind, readout_value) VALUES
  ('EOS006164 (antibody, V domains shown) VH: EVQLVESGGGLVQPGRSLRLSCTASGFTFDDYTMSWFRQAPGKGLEWVGFIGSKAYSATTEYTASVKGRFTISRDGSKSIAYLQMNSLKTEDTAVYYCARGKRYSYTYWTPAFDVWGQGTMVTVSS VL: DIQMTQSPSSLSASVGDRVTITCQASQDITNYLNWYQQKPGKAPKLLIYDASNLETGVPSRFSGSGSGTDFTFTISSLQPEDIATYYCQEYDSYITFGGGTKVEIK', 'pKd', 9.49),
  ('EOS006174 (antibody, V domains shown) VH: EVQLVESGGGLVQPGRSLRLSCTASGFTFGEYTMSWFRQAPGKGLEWVGFIGSKAYAGTTEYTASVKGRFTISRDGSKSIAYLQMNSLKTEDTAVYYCARGKRYSYGGWVPAFDVWGQGTMVTVSS VL: DIQMTQSPSSLSASVGDRVTITCQASQDITNYLNWYQQKPGKAPKLLIYDASNLETGVPSRFSGSGSGTDFTFTISSLQPEDIATYYCQEYDSYLAFGGGTKVEIK', 'pKd', 10.05),
  ('EOS006163 (antibody, V domains shown) VH: QVQLVQSGAEVKKPGSSVKVSCKASGGTFAQYAISWVRQAPGQGLEWMGVIIPDSGTANYAQKFQGRVTITADESTSTAYMELSSLRSEDTAVYYCARTQENTIFDIWGQGTMVTVSS VL: EIVLTQSPATLSLSPGERATLSCRASQSVSSYLAWFQQKPGQAPRLLIYDASNRATGIPARFSGSGSGTDFTLTISSLEPEDFAVYYCQQDYEWPITFGGGTKVEIK', 'pKd', 9.82),
  ('EOS006177 (antibody, V domains shown) VH: QVQLQESGPGLVKPSGTLSLTCAVSGGSISDSAWWSWVRQPPGKGLEWIGEIYHDADTNYNPSLKSRVTISVDKSKNQFSLKLSSVTAADTAVYYCARDTKYWGGMDVWGQGTTVTVSS VL: DIQMTQSPSSLSASVGDRVTITCQASQDISNYLNWYQQKPGKAPKLLIYDASNLATGVPSRFSGSGSGTDFTFTISSLQPEDIATYYCQQYVEAPTFGGGTKVEIK', 'pKd', 9.72);
